quantity_kind: pKi
pKi (log units): -log10 of the concentration in mol/L.

GET /values?item= O=c1c(-c2ccccc2)c2ccccn2c(=O)n1CCCCN1CCC(c2noc3cc(F)ccc23)CC1 &system= 5-HT2A receptors (Homo sapiens, UniProt P28223) returns pKi: 7.77

====

Exercise: for every item that follows, state its recorded melting point.

Measured melting point, COc1ccccc1-c1c(=O)n(CCCCN2CCC(c3noc4cc(F)ccc34)CC2)c(=O)n2ccccc12 [Compound 6c] : 65 to 70 °C

Measured melting point, O=c1c(-c2ccccc2)c2n(c(=O)n1CCCCN1CCC(c3noc4cc(F)ccc34)CC1)CCCC2 [Compound 7a] : 110 to 113 °C

Measured melting point, COc1ccc(-c2c(=O)n(CCCCN3CCC(c4noc5cc(F)ccc45)CC3)c(=O)n3ccccc23)cc1 [Compound 6g] : 163 to 166 °C

====

# study_system: SERT protein (Rattus norvegicus)
# Sequence (P31652 whole entry): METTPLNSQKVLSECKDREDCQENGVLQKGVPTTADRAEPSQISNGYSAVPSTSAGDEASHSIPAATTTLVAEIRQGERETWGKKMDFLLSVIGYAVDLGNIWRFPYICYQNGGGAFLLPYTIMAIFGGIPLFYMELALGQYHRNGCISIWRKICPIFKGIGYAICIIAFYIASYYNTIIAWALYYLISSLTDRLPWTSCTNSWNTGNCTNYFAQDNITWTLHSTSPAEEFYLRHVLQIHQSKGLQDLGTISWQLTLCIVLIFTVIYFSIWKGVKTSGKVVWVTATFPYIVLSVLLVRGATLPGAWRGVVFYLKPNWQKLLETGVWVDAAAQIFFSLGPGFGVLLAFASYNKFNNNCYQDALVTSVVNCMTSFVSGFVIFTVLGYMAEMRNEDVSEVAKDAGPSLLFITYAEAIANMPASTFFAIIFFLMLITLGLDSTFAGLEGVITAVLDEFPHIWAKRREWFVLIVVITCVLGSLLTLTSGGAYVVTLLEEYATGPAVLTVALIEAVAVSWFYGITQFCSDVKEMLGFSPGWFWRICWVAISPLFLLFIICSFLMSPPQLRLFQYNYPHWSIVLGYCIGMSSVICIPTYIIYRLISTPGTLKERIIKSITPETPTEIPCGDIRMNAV
quantity_kind: Ki

GET /values?item= Cc1ccccc1-c1c(=O)n(CCCCN2CCC(c3noc4cc(F)ccc34)CC2)c(=O)n2ccccc12 &system= SERT protein (Rattus norvegicus) returns Ki: > 5 µM

GET /values?item= Cc1ccccc1-c1c2n(c(=O)n(CCCCN3CCC(c4noc5cc(F)ccc45)CC3)c1=O)CCCC2 &system= SERT protein (Rattus norvegicus) returns Ki: > 1 µM

GET /values?item= COc1ccccc1-c1c(=O)n(CCCCN2CCC(c3noc4cc(F)ccc34)CC2)c(=O)n2ccccc12 &system= SERT protein (Rattus norvegicus) returns Ki: > 5 µM
